// provenance: PubChem BioAssay (NCI)

- Test system: HOP-92 NSCLC
- assay.procedure: NCI tumour cell line growth inhibition, 48 h
result.type: TGI

{"columns": ["molecule", "result.type", "experimental.result"],
 "data": [
  ["COC(=O)C1=C(C(=O)OC)C2(/N=C(\\Nc3ccccc3)c3ccccc3)N(c3ccc(OC)cc3)CC(c3ccccc3)N2O1 (stereo not given)", "TGI", "> 100 µM"],
  ["Cc1ccccc1N=Nc1ccc(N=Nc2c(O)ccc3cc(S(=O)(=O)O)cc(S(=O)(=O)O)c23)c(C)c1", "TGI", "> 100 µM"],
  ["NC(Cc1ccc2oc3cc(=O)c4ccccc4c-3nc2c1)C(=O)O (stereo not given)", "TGI", "> 100 µM"],
  ["Cc1cc(Cl)ccc1N1C(=O)C(=O)C(c2nc3ccccc3s2)/C(=N\\NC(=O)c2ccccc2O)C1=O (stereo not given)", "TGI", "> 100 µM"],
  ["COc1cc([C@@H]2c3cc4c(cc3[C@@H](NC(=O)c3ccc(C(C)=O)cc3)C3COC(=O)[C@@H]32)OCO4)cc(OC)c1O (stereo not given in full)", "TGI", "27 µM"],
  ["O=C1c2ccccc2N2OC3C4CCC(C4)C3C12c1ccccc1 (stereo not given)", "TGI", "> 100 µM"],
  ["Nc1nc(SCCC/C=C/B(O)O)nc2c1ncn2C1OC(CO)C(O)C1O (stereo not given)", "TGI", "> 243 µM"],
  ["COc1cccc(N2CCc3c(C)c(C#N)c4nc5ccccc5n4c32)c1", "TGI", "> 100 µM"],
  ["Cc1ccc(-c2n[nH]c(CC#N)n2)cc1", "TGI", "> 100 µM"],
  ["CCCCNC(=O)C1=C(C)NC(C)=C(C(=O)NCCCC)C1", "TGI", "> 100 µM"]
]}
